A collection of molecules and their measured TGI
system: MDA-MB-435; experiment: NCI tumour cell line growth inhibition, 48 h

molecule	TGI
Cc1nc2c(O)cc3c4c(=O)n(C)c(=O)n(C)c4n(Cc4ccccc4)c3c2nc1C	33.9 µM

Prompt: Quick one: TGI for NC1OC(COC(=O)c2ccccc2)C(O)C(OC(=O)c2ccccc2)C1OC(=O)c1ccccc1 (centres undefined) ?
Completion: 46.7 µM

Prompt: Follow-up item: CC1(C)Oc2ccc3c(=O)c(-c4ccccc4)c(-c4ccccc4)oc3c2C1C(=O)O (centres undefined)
Completion: > 100 µM

Prompt: Follow-up entry: C=CC(CBr)CCC(Br)C(C)(C)Br (centres undefined)
Completion: > 10 µM

Prompt: Next molecule up: N#CC1(C#N)NC(c2cccnc2)C(C#N)(C#N)NC1c1cccnc1 (centres undefined)
Completion: > 100 µM

Prompt: Now consider C=CC(=O)N1C/C(=C\c2ccccc2)C(=O)/C(=C/c2ccccc2)C1 .
Completion: 2.1 µM

Prompt: Lookup C=C1[C@H](OC(=O)C(C)C)[C@@H](OC(C)=O)[C@@H](OC(C)=O)C(C)(C)[C@@H]2O[C@H]2[C@@H](C)C(=O)[C@@]2(OC(C)=O)C[C@@](C)(OC(C)=O)[C@H](OC(C)=O)[C@@H]2[C@H]1OC(C)=O
Completion: > 100 µM

Prompt: Proceed to COc1cc2c3c(c4ccc(OC)c(OC)c4c2cc1OC)CN1CCC[C@@H]1C3
Completion: 5.83 µM

Prompt: What would you report for CCCCCN1CCN(c2ncccn2)CC1 ?
Completion: > 100 µM

====

Measured TGI values are reported for all entries that follow.
system: ACHN renal; assay: NCI tumour cell line growth inhibition, 48 h

Prompt: Param readout= TGI; system= ACHN renal; entry= COc1cc(-c2nc(NC(C)=O)sc2-c2ccnc(NCCNS(=O)(=O)c3ccccc3)n2)ccc1Cl ; returns value.
Completion: > 100 µM

Prompt: Same question for CCCCOCn1c(=O)[nH]c(=O)c2ccccc21 please.
Completion: > 100 µM

Prompt: What do we get for CCN1C(=O)N(CC)C2C1NN=c1s/c(=C\c3ccccc3F)c(=O)n12 (stereo unspecified) ?
Completion: > 100 µM

Prompt: Continue with Cc1ccc2nc(N/N=C/c3ccc(C)s3)cc(C)c2c1
Completion: 24.1 µM

Prompt: Same thing, different compound: [O-]c1c[n+](CCCC[n+]2cc([O-])on2)no1
Completion: > 100 µM

====

tested on: MDA-MB-435; assay: NCI tumour cell line growth inhibition, 48 h
metric-name: TGI

Reference set (4 entries):
>>> print(df.to_string())
                                   compound    result
0  CC(=O)OCc1ccc2oc(=O)c(C(=O)Oc3cccc(Cl)c3)cc2c1  > 100 µM
1  COc1cc(-c2nc(NC(C)=O)sc2-c2ccnc(NCCNS(=O)(=O)c3ccccc3)n2)ccc1Cl   3.45 µM
2  O=C(Nc1cccc(NC(=O)C(=O)C2CCC3=C(Sc4ccccc4N3)C2=O)n1)C(=O)C1CCC2=C(Sc3ccccc3N2)C1=O (stereo not given)  > 100 µM
3  CC1=CC(=O)CC(C)(C)C1(O)/C=C/C(C)=C/C(=O)O (stereo not given)  > 100 µM

Prompt: GET /values?readout=TGI&item= CC1=C(C#N)C23C(=O)c4ccccc4C(O)=C2C(=O)C=CC3(O)N1 (stereo not given)
Completion: 9.37 µM
